biological target: hZnT1 (Homo sapiens, UniProt Q9Y6M5, I96A); construct: homodimer (ECD 271-312, CTD 345-507 visible); tags and borders only in supplement; transport assay in HEK-293F cells; assay: biolayer interferometry (BLI); details: read-out: binding affinity
Sequence (Q9Y6M5 whole entry I96A, the tested form may be a part): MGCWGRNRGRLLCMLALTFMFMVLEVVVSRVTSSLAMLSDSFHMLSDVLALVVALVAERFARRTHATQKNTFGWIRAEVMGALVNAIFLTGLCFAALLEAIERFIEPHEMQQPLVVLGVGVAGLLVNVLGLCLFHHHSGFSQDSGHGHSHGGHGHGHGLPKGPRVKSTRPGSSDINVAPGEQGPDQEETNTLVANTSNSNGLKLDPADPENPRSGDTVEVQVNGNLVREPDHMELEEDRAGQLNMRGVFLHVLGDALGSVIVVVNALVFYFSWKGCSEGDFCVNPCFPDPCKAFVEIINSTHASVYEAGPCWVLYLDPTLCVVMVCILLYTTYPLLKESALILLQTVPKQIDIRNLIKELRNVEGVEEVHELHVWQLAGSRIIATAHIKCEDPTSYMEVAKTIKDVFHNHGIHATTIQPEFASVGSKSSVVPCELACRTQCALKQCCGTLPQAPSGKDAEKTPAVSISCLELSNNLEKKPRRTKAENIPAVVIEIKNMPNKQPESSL
pKd: −log10 of the molar value.

- Smiles repr: "COC(=O)[C@]12CCC(C)(C)C[C@H]1[C@H]1C(=O)C=C3[C@@]4(C)C=C(C#N)C(=O)C(C)(C)[C@@H]4CC[C@@]3(C)[C@]1(C)CC2"
  Measured on: "hZnT1 (Homo sapiens, UniProt Q9Y6M5, I96A)"
  pKd: 4.23

From: paper PMC12698182
